Test system: NCI-H226 lung
Assay explanation: NCI tumour cell line growth inhibition, 48 h
Recorded endpoint: TGI

[
  {
    "Molecule": "Nc1ccc2c(c1)CN1C(=O)c3ccccc3C1=N2",
    "Recorded endpoint": "TGI",
    "Data value": "> 117 µM"
  },
  {
    "Molecule": "COC(=O)CNC(=O)/C=C/[C@H](O[Si](C)(C)C(C)(C)C)[C@H](/C=C/C(=O)NCC(=O)OC)O[Si](C)(C)C(C)(C)C",
    "Recorded endpoint": "TGI",
    "Data value": "> 25 µM"
  },
  {
    "Molecule": "CC(C)C[C@H](NC(=O)[C@@H](O)[C@H](N)Cc1ccccc1)C(=O)O",
    "Recorded endpoint": "TGI",
    "Data value": "> 100 µM"
  },
  {
    "Molecule": "CSC1(SC)CCCCCCCCCCC1",
    "Recorded endpoint": "TGI",
    "Data value": "> 100 µM"
  },
  {
    "Molecule": "O=C1N2CCc3c([nH]c4ccccc34)C23CC2CCCC12S3 (stereo not drawn)",
    "Recorded endpoint": "TGI",
    "Data value": "> 50 µM"
  },
  {
    "Molecule": "O=C(OCc1nc2ccc(Br)cc2c(=O)n1-c1ccccc1)c1ccccc1O",
    "Recorded endpoint": "TGI",
    "Data value": "> 100 µM"
  },
  {
    "Molecule": "CCOP(=O)(OCC)C(F)(F)CC1CCCCC1",
    "Recorded endpoint": "TGI",
    "Data value": "> 10 µM"
  },
  {
    "Molecule": "Nc1ncnc2c1ncn2Cc1ccc(C23CC4CC(CC(C4)C2)C3)c(O)c1",
    "Recorded endpoint": "TGI",
    "Data value": "> 100 µM"
  }
]

* * *

Tested on: EKVX NSCLC
Assay explanation: NCI tumour cell line growth inhibition, 48 h
Where a SMILES comes first, the peptide text is derived from it. [ ]: non-standard residue; d: D form. The star is where a group is joined. Phe(4-NO2) = N[CH](Cc1ccc([N+](=O)[O-])cc1)C(=O)O; Boc = CC(C)(C)OC(=O)*; OtBu = CC(C)(C)O*
Recorded endpoint: TGI

[
  {
    "Molecule": "O=C(O)CNC(=O)c1cccc2c(=O)c3ccccc3[nH]c12",
    "Recorded endpoint": "TGI",
    "Data value": "> 100 µM"
  },
  {
    "Molecule": "N#Cc1ccc(N2Cc3cc(Cl)ccc3OC3=C2C(=O)N(Cc2ccccc2)C3=O)cc1",
    "Recorded endpoint": "TGI",
    "Data value": "4.92 µM"
  },
  {
    "Molecule": "CN(C)CCn1c(=O)c2ccc(NCCNCCO)c3c(=O)c4cc(O)ccc4n(c1=O)c23",
    "Recorded endpoint": "TGI",
    "Data value": "14.3 µM"
  },
  {
    "Molecule": "c1ccc(C/C(=N\\Nc2nc3ccccc3o2)c2ccccn2)cc1",
    "Recorded endpoint": "TGI",
    "Data value": "< 0.0267 µM"
  },
  {
    "Molecule": "COC(=O)C(Cc1ccc([N+](=O)[O-])cc1)NC(=O)C(CC(=O)OC(C)(C)C)NC(=O)OC(C)(C)C (stereo unspecified) (Boc-Asp(OtBu)-[Phe(4-NO2)]-OMe; configuration not given here)",
    "Recorded endpoint": "TGI",
    "Data value": "> 100 µM"
  },
  {
    "Molecule": "Clc1ncc(C(Cl)(Cl)Cl)nc1-c1ccccc1",
    "Recorded endpoint": "TGI",
    "Data value": "6.02 µM"
  },
  {
    "Molecule": "C=C(C)[C@]12CC(C)C34OC(/C=C\\C=C\\CCCCCCCCC)(O[C@@H]1[C@@H]3[C@@H]1O[C@]1(CO)[C@@H](O)[C@]1(O)C(=O)C(C)=C[C@@H]41)O2 (stereo partly specified)",
    "Recorded endpoint": "TGI",
    "Data value": "27.8 µM"
  },
  {
    "Molecule": "CCN(CC)c1ccc(C(=C2C=CC(=[N+](CC)CC)C=C2)c2ccccc2)cc1",
    "Recorded endpoint": "TGI",
    "Data value": "0.581 µM"
  },
  {
    "Molecule": "COc1cc(C2c3cc4c(cc3[C@@H](Nc3cccc(O)c3)C3COC(=O)[C@H]23)OCO4)cc(OC)c1O (stereo partly specified)",
    "Recorded endpoint": "TGI",
    "Data value": "15 µM"
  },
  {
    "Molecule": "CC(=O)Nc1ccc(-n2cnc3cc(-c4ccc(OCCN5CCCCC5)cc4)ccc32)cc1",
    "Recorded endpoint": "TGI",
    "Data value": "28 µM"
  },
  {
    "Molecule": "CC1=CC(c2ccccc2)n2c(nc3cc4ccccc4cc32)N1 (stereo unspecified)",
    "Recorded endpoint": "TGI",
    "Data value": "> 100 µM"
  },
  {
    "Molecule": "C=C(CC1(CC(=C)c2ccc(C(=O)O)cc2)C(=O)N(C)C(=O)N(C)C1=O)c1ccc(C(=O)O)cc1",
    "Recorded endpoint": "TGI",
    "Data value": "> 100 µM"
  },
  {
    "Molecule": "COc1ccc([C@@]23CCC(=O)C[C@@H]2N(C)CC3)cc1OC",
    "Recorded endpoint": "TGI",
    "Data value": "> 100 µM"
  },
  {
    "Molecule": "C=CC[PH+](c1ccccc1)c1ccccc1.C=CC[PH+](c1ccccc1)c1ccccc1.[Cl][Pt][Cl]",
    "Recorded endpoint": "TGI",
    "Data value": "27.4 µM"
  },
  {
    "Molecule": "COc1ccc(C=O)cc1Oc1ccc(C[C@H]2c3c(cc(OC)c4c3Oc3cc5c(cc3O4)CCN(C)C5=O)CCN2C)cc1",
    "Recorded endpoint": "TGI",
    "Data value": "22.3 µM"
  },
  {
    "Molecule": "COc1cccc(N2N=C3c4ccccc4-n4c(nc5ccccc54)C3C2N)c1 (stereo unspecified)",
    "Recorded endpoint": "TGI",
    "Data value": "> 100 µM"
  },
  {
    "Molecule": "CC(C)CC1c2[nH]c3ccccc3c2C[C@H]2C(=O)NC(COC(C)(C)C)C(=O)N12 (stereo partly specified)",
    "Recorded endpoint": "TGI",
    "Data value": "71.7 µM"
  },
  {
    "Molecule": "COC(=O)CCc1ccc2c(c1)CC1(C2)Cc2ccc(CCC(=O)OC)cc2C1",
    "Recorded endpoint": "TGI",
    "Data value": "> 100 µM"
  },
  {
    "Molecule": "CCOc1cc(C=O)ccc1O",
    "Recorded endpoint": "TGI",
    "Data value": "> 100 µM"
  },
  {
    "Molecule": "COc1ccc(C[C@H]2COC(=O)[C@@H]2Cc2cc(OC)c(OC)c(OC)c2)cc1OC",
    "Recorded endpoint": "TGI",
    "Data value": "> 100 µM"
  },
  {
    "Molecule": "CCOC(=N)CC(=O)NC(C)c1ccccc1 (stereo unspecified)",
    "Recorded endpoint": "TGI",
    "Data value": "> 100 µM"
  },
  {
    "Molecule": "COC(=O)CNC(=O)/C=C/[C@H](O[Si](C)(C)C(C)(C)C)[C@H](/C=C/C(=O)NCC(=O)OC)O[Si](C)(C)C(C)(C)C",
    "Recorded endpoint": "TGI",
    "Data value": "> 25 µM"
  },
  {
    "Molecule": "O=C(Cc1nc2ccc([N+](=O)[O-])cc2[nH]c1=O)C(=O)Nc1cc(Cl)c(Cl)cc1Cl",
    "Recorded endpoint": "TGI",
    "Data value": "> 100 µM"
  },
  {
    "Molecule": "COc1ccccc1NC(=O)C(=O)C1C(=O)Nc2ccccc2S1=O (stereo unspecified)",
    "Recorded endpoint": "TGI",
    "Data value": "> 100 µM"
  },
  {
    "Molecule": "COc1cc(CC(=O)c2ccc3c(c2)OCO3)cc(OC)c1OC",
    "Recorded endpoint": "TGI",
    "Data value": "> 100 µM"
  },
  {
    "Molecule": "CCCOc1c2cc(COC3OC(CO)C(O)C(O)C3O)cc1Cc1cc(COC3OC(CO)C(O)C(O)C3O)cc(c1OCCC)Cc1cc(COC3OC(CO)C(O)C(O)C3O)cc(c1OCCC)Cc1cc(COC3OC(CO)C(O)C(O)C3O)cc(c1OCCC)C2 (stereo unspecified)",
    "Recorded endpoint": "TGI",
    "Data value": "> 100 µM"
  }
]
